These data points were gathered from patent US20160002273A1.

# testTarget: SIRT2 (Homo sapiens)
# Sequence (Q8IXJ6 whole entry): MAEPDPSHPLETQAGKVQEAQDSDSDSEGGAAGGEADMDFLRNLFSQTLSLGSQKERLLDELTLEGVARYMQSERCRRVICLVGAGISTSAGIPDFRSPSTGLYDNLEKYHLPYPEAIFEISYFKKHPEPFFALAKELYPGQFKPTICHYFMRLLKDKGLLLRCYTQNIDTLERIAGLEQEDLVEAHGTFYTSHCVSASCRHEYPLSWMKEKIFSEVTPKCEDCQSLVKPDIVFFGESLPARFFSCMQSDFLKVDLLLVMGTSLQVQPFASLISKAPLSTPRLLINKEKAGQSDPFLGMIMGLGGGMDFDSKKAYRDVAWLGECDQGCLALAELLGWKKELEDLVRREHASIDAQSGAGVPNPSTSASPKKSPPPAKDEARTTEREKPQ
# testDescription: SIRT2 deacetylation of Trp 5-mer peptide, OAADPr mass spec assay
# Assay type: biochemical
# Parameters: His-SIRT2(1-389)
# runParameters: Trp 5-mer peptide; class symbols; read-out: Trp SIRT2_IC50
pIC50: −log10 of the molar value.
propertyMeasured: pIC50

- molecule: "NC(=O)c1cc2ncnc(N3CCC(CN4CCCC4C(F)(F)F)CC3)c2s1 (centres unmarked)"
  valueReported: "> 6.00"
- molecule: "NC(=O)c1cc2ccnc(N3CCC(CN4CCCC4)CC3)c2s1"
  valueReported: "< 5.00"
- molecule: "NC(=O)c1cc2ncnc(N3CCC(C4CCNCC4)CC3)c2s1"
  valueReported: "> 6.00"
- molecule: "CN(C)CC1CCN(c2ncnc3cc(C(N)=O)sc23)CC1"
  valueReported: "> 6.00"
- molecule: "COCCC1CCN(c2ncnc3cc(C(N)=O)oc23)CC1"
  valueReported: "5.00 to 6.00"
- molecule: "CC(C)(C)OC(=O)N1CCC(C2CCN(c3ncnc4cc(C(N)=O)oc34)CC2)CC1"
  valueReported: "5.00 to 6.00"
- molecule: "NC(=O)c1cc2ncnc(N3CCN(CCNC(=O)C4CCCC4)CC3)c2s1"
  valueReported: "> 6.00"
- molecule: "CC(=S)NCCN1CCN(c2ncnc3cc(C(N)=O)sc23)CC1"
  valueReported: "> 6.00"
- molecule: "CC(C)(C)C(=O)NCCN1CCN(c2ncnc3cc(C(N)=O)oc23)CC1"
  valueReported: "> 6.00"
- molecule: "NC(=O)c1cc2ccnc(N3CCN(CCN4CCCC4)CC3)c2s1"
  valueReported: "5.00 to 6.00"
- molecule: "Cc1nc(N2CCC(CCN)CC2)c2sc(C(N)=O)cc2n1"
  valueReported: "5.00 to 6.00"
